Listed here are compounds together with their documented pIC50.
Biological target: recombinant human c-Met/HGF receptor (Homo sapiens, UniProt P08581)
Construct: His tag (histidine tag from pBlueBacHis2A); made in house; host or cells: Hi-5 cells (Trichoplusia ni), recombinant baculovirus
Sequence (P08581 1078-1337): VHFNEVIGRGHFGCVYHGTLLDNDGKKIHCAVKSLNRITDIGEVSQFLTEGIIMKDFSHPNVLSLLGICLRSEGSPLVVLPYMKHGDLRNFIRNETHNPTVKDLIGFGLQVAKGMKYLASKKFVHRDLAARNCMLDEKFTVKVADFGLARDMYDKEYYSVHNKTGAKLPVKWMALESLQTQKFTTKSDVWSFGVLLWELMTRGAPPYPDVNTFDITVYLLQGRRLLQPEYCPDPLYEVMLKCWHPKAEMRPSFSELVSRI
Experiment: In vitro receptor tyrosine kinase assay (DELFIA), c-Met/HGF receptor
Format: biochemical
Conditions: Table 31; ATP 10 uM, enzyme 25 nM; read-out: CMet ic50
pIC50: −log10 of the molar value.
measurement_label: pIC50

{"compound": "C#Cc1cc(F)ccc1CC(=O)NC(=S)Nc1ccc(Oc2ccnc3cc(-c4ccc(CN5CCN(C)CC5)cc4)sc23)c(F)c1", "assay_value": "> 7.30"}
{"compound": "C#Cc1ccc(CC(=O)NC(=S)Nc2ccc(Oc3ccnc4cc(-c5nccn5C)sc34)c(F)c2)cc1F", "assay_value": "6.60 to 7.30"}
{"compound": "CN(c1ccc(NC(=S)NC(=O)Cc2ccccc2)cc1F)c1ccnc2cc(-c3nccn3C)sc12", "assay_value": "> 7.30"}
{"compound": "CCn1cnc(-c2cc3nccc(Oc4ccc(NC(=S)NC(=O)Cc5ccccc5C)cc4F)c3s2)c1 [drawing 441]", "assay_value": "> 7.30"}
{"compound": "CN(C)C(=O)c1ccc(-c2cc3nccc(Oc4ccc(NC(=S)NC(=O)Cc5ccc(F)cc5)cc4F)c3s2)cc1", "assay_value": "> 7.30"}
{"compound": "C#Cc1ccccc1CC(=O)NC(=S)Nc1ccc(Oc2ccnc3cc(-c4cccc[n+]4[O-])sc23)c(F)c1", "assay_value": "> 7.30"}
{"compound": "Cn1ccnc1-c1cc2nccc(Sc3ccc(NC(=S)NC(=O)Cc4ccccc4)cc3)c2s1", "assay_value": "> 7.30"}
{"compound": "O=C(Cc1ccccc1)NC(=S)Nc1ccc(Nc2ccnc3ccsc23)c(F)c1", "assay_value": "6.60 to 7.30"}
{"compound": "C#Cc1ccc(CC(=O)NC(=S)Nc2ccc(Oc3ccnc4cc(-c5cn(CCN6CCCC6)cn5)sc34)c(F)c2)cc1", "assay_value": "6.60 to 7.30"}
{"compound": "Cn1cnc(-c2cc3nccc(Oc4ccc(NC(=S)NC(=O)Cc5ccc(F)cc5F)cc4F)c3s2)c1 [drawing 434]", "assay_value": "> 7.30"}
{"compound": "O=C(Cc1ccc(F)cc1)NC(=S)Nc1ccc(Oc2ccnc3cc(-c4cc[n+]([O-])cc4)sc23)c(F)c1", "assay_value": "> 7.30"}
{"compound": "O=C(Cc1ccccc1)NC(=S)Nc1ccc(Oc2ccnc3cc(-c4cn(CCN5CCCC5)cn4)sc23)c(F)c1", "assay_value": "> 7.30"}
{"compound": "C#Cc1ccccc1CC(=O)NC(=S)Nc1ccc(Oc2ccnc3cc(-c4cn(CC)cn4)sc23)c(F)c1 [drawing 455]", "assay_value": "> 7.30"}
{"compound": "CO/N=C(\\C)c1cc2nccc(Oc3ccc(NC(=S)NC(=O)Cc4ccccc4)cc3F)c2s1", "assay_value": "> 7.30"}
{"compound": "CCn1cnc(-c2cc3nccc(Oc4ccc(NC(=S)NC(=O)Cc5cccc(F)c5)cc4F)c3s2)c1", "assay_value": "> 7.30"}
{"compound": "COCCN(CCOC)Cc1cccc(-c2cc3nccc(Oc4ccc(NC(=S)NC(=O)Cc5ccc(F)cc5)cc4F)c3s2)c1", "assay_value": "> 7.30"}
{"compound": "COc1cccc(Nc2cc3nccc(Oc4ccc(NC(=S)NC(=O)Cc5ccccc5OC)cc4F)c3s2)c1", "assay_value": "6.60 to 7.30"}

====

System: DU145
Assay: DU145 scattering inhibition (HGF dependent scattering)
Type: cell-based
Details: Homo sapiens, DU-145, Table 31, read-out: DU145 scattering inhib IC50
measurement_label: IC50

{"compound": "C#Cc1ccccc1CC(=O)NC(=S)Nc1ccc(Oc2ccnc3cc(C4=CCN(C)CC4)sc23)c(F)c1", "measurement_label": "IC50", "assay_value": "< 1 µM"}
{"compound": "CS(=O)(=O)c1ccc(-c2cc3nccc(Oc4ccc(NC(=S)NC(=O)Cc5ccc(F)cc5)cc4F)c3s2)cc1", "measurement_label": "IC50", "assay_value": "< 1 µM"}
{"compound": "C#Cc1ccccc1CC(=O)NC(=S)Nc1ccc(Oc2ccnc3cc(-c4cn(C)cn4)sc23)c(F)c1 [drawing 451]", "measurement_label": "IC50", "assay_value": "< 1 µM"}
{"compound": "CC(=O)N1CC=C(c2cc3nccc(Oc4ccc(NC(=S)NC(=O)Cc5ccc(F)cc5)cc4F)c3s2)CC1", "measurement_label": "IC50", "assay_value": "< 1 µM"}
{"compound": "CN(CCO)Cc1ccc(-c2cc3nccc(Oc4ccc(NC(=S)NC(=O)Cc5ccccc5)cc4F)c3s2)cc1", "measurement_label": "IC50", "assay_value": "< 1 µM"}
{"compound": "C#Cc1ccc(CC(=O)NC(=S)Nc2ccc(Oc3ccnc4cc(-c5ccc(CN(C)CCO)cc5)sc34)c(F)c2)cc1", "measurement_label": "IC50", "assay_value": "> 10 µM"}
{"compound": "CCNC(=O)N1CCN(Cc2ccc(-c3cc4nccc(Oc5ccc(NC(=S)NC(=O)Cc6ccccc6)cc5F)c4s3)cc2)CC1", "measurement_label": "IC50", "assay_value": "< 1 µM"}
{"compound": "C#Cc1cc(F)ccc1CC(=O)NC(=S)Nc1ccc(Oc2ccnc3cc(-c4cn(C)cn4)sc23)c(F)c1", "measurement_label": "IC50", "assay_value": "< 1 µM"}
{"compound": "CN1CCN(Cc2ccc(-c3cc4nccc(Oc5ccc(NC(=S)NC(=O)Cc6ccccc6)cc5F)c4s3)cc2)CC1", "measurement_label": "IC50", "assay_value": "< 1 µM"}
{"compound": "COCCNCc1ccc(-c2cc3nccc(Oc4ccc(NC(=S)NC(=O)Cc5ccc(F)cc5)cc4F)c3s2)c(F)c1", "measurement_label": "IC50", "assay_value": "< 1 µM"}
{"compound": "C#Cc1cc(F)ccc1CC(=O)NC(=S)Nc1ccc(Oc2ccnc3cc(-c4cccc[n+]4[O-])sc23)c(F)c1", "measurement_label": "IC50", "assay_value": "< 1 µM"}
{"compound": "O=C(Cc1ccc(F)cc1)NC(=S)Nc1ccc(Oc2ccnc3cc(-c4cccc[n+]4[O-])sc23)c(F)c1", "measurement_label": "IC50", "assay_value": "< 1 µM"}
{"compound": "CCn1cnc(-c2cc3nccc(Oc4ccc(NC(=S)NC(=O)Cc5ccc(F)cc5)cc4F)c3s2)c1", "measurement_label": "IC50", "assay_value": "< 1 µM"}
{"compound": "COCCNCc1ccc(-c2cc3nccc(Oc4ccc(NC(=O)NC(=O)Cc5ccc(F)cc5)cc4F)c3s2)cc1", "measurement_label": "IC50", "assay_value": "< 1 µM"}
{"compound": "COCCNCc1ccc(-c2cc3nccc(Oc4ccc(NC(=S)NC(=O)Cc5ccc(F)cc5)cc4F)c3s2)nc1", "measurement_label": "IC50", "assay_value": "< 1 µM"}
{"compound": "C#Cc1cccc(CC(=O)NC(=S)Nc2ccc(Oc3ccnc4cc(-c5cn(C)cn5)sc34)c(F)c2)c1", "measurement_label": "IC50", "assay_value": "1 to 5 µM"}
{"compound": "Cn1cnc(-c2cc3nccc(Nc4ccc(NC(=S)NC(=O)Cc5ccccc5)cc4F)c3s2)c1", "measurement_label": "IC50", "assay_value": "< 1 µM"}
{"compound": "CCn1cnc(-c2cc3nccc(Oc4ccc(NC(=S)NC(=O)Cc5cccc(F)c5)cc4F)c3s2)c1", "measurement_label": "IC50", "assay_value": "< 1 µM"}
{"compound": "O=C(Cc1ccccc1)NC(=S)Nc1ccc(Oc2ccnc3cc(-c4ccc(CN5CCCC5)cn4)sc23)c(F)c1", "measurement_label": "IC50", "assay_value": "< 1 µM"}
{"compound": "C#Cc1ccccc1CC(=O)NC(=S)Nc1ccc(Oc2ccnc3cc(-c4nccn4C)sc23)c(F)c1", "measurement_label": "IC50", "assay_value": "< 1 µM"}
{"compound": "C#Cc1ccc(CC(=O)NC(=S)Nc2ccc(Oc3ccnc4cc(-c5cn(CC)cn5)sc34)c(F)c2)cc1F", "measurement_label": "IC50", "assay_value": "1 to 5 µM"}
{"compound": "C#Cc1ccccc1CC(=O)NC(=S)Nc1ccc(Oc2ccnc3cc(-c4cn(CCN5CCCC5)cn4)sc23)c(F)c1", "measurement_label": "IC50", "assay_value": "< 1 µM"}
{"compound": "C#Cc1ccc(CC(=O)NC(=S)Nc2ccc(Oc3ccnc4cc(-c5cn(CCN6CCCC6)cn5)sc34)c(F)c2)cc1", "measurement_label": "IC50", "assay_value": "> 10 µM"}
{"compound": "Cn1ccnc1-c1cc2nccc(Oc3ccc(NC(=S)NC(=O)Cc4ccc(F)cc4)cc3F)c2s1", "measurement_label": "IC50", "assay_value": "< 1 µM"}
{"compound": "CNC(=O)N1CCN(Cc2ccc(-c3cc4nccc(Oc5ccc(NC(=S)NC(=O)Cc6ccc(F)cc6)cc5F)c4s3)cc2)CC1", "measurement_label": "IC50", "assay_value": "< 1 µM"}
{"compound": "C#Cc1cccc(F)c1CC(=O)NC(=S)Nc1ccc(Oc2ccnc3cc(-c4cn(C)cn4)sc23)c(F)c1", "measurement_label": "IC50", "assay_value": "< 1 µM"}
{"compound": "CCn1cncc1-c1cc2nccc(Oc3ccc(NC(=S)NC(=O)Cc4ccccc4OC)cc3F)c2s1", "measurement_label": "IC50", "assay_value": "< 1 µM"}
{"compound": "CN1CCN(CCN(C)Cc2ccc(-c3cc4nccc(Oc5ccc(NC(=S)NC(=O)Cc6ccccc6)cc5F)c4s3)cc2)CC1", "measurement_label": "IC50", "assay_value": "< 1 µM"}
{"compound": "CN1CC=C(c2cc3nccc(Oc4ccc(NC(=S)NC(=O)Cc5ccccc5)cc4F)c3s2)CC1", "measurement_label": "IC50", "assay_value": "< 1 µM"}
{"compound": "C#Cc1cc(F)ccc1CC(=O)NC(=S)Nc1ccc(Oc2ccnc3cc(-c4nccn4C)sc23)c(F)c1", "measurement_label": "IC50", "assay_value": "< 1 µM"}
{"compound": "CN(c1ccc(NC(=S)NC(=O)Cc2ccccc2)cc1F)c1ccnc2cc(-c3nccn3C)sc12", "measurement_label": "IC50", "assay_value": "< 1 µM"}
{"compound": "C#Cc1ccc(CC(=O)NC(=S)Nc2ccc(Oc3ccnc4cc(-c5ccc(CN6CCN(C)CC6)cc5)sc34)c(F)c2)cc1", "measurement_label": "IC50", "assay_value": "1 to 5 µM"}
{"compound": "Cn1ccnc1-c1cc2nccc(Oc3ccc(NC(=S)NC(=O)Cc4ccc(F)cc4F)cc3F)c2s1", "measurement_label": "IC50", "assay_value": "< 1 µM"}
